Target: Human immunodeficiency virus type 1 reverse transcriptase (Human immunodeficiency virus 1, UniProt Q72547, K103N/Y181C)
Experiment: Effective concentration towards HIV-1 K103N/Y181C mutant reverse transcriptase activity by 50% measured in cellular assay
Parameter class (string): assigned from measured EC50. Ranges: label 0: < 20 nM; label 1: ≥ 20 nM and < 40 nM; label 2: ≥ 40 nM

Problem: # bin lookup: classify CCN1c2ncc(CCOc3ccc(C(=O)O)cc3Br)cc2C(=O)N(C)c2cccnc21 by its EC50
Result: label 1

Problem: # bin lookup: classify CCN1c2ncc(CCOc3ccc(C(=O)O)cc3C)cc2C(=O)N(C)c2ccc(C)nc21 by its EC50
Result: label 1

Problem: # bin lookup: classify CCN1c2ncc(CCOc3ccc(CCC(=O)O)cc3C)cc2C(=O)N(C)c2cccnc21 by its EC50
Result: label 2

Problem: # bin lookup: classify CCN1c2ncc(CCOc3ccc(C(=O)O)cc3C)cc2C(=O)N(C)c2ccc(OC)nc21 by its EC50
Result: label 0
